- condition-context: human, microsomes, 2 µM
Recorded log10 of clearance for the following compounds
reported-property: log10 of clearance (log10 of the value in µL/min/mg)

# compound, reported-property, numeric-readout
records = [
    ("O=C(c1ccc2c(c1)cc(C(=O)N1CCOCC1)n2CC(F)(F)F)N1CCN(C2CCC2)CC1", "log10 of clearance", 1.00),
    ("O=C(c1cc2cc(OC3CCN(C4CCC4)CC3)ccc2n1CC(F)(F)F)N1CCOCC1", "log10 of clearance", 0.60),
    ("CC(C)(C)N1CCC(Oc2ccc3[nH]c(C(=O)N4CCOCC4)cc3c2)CC1", "log10 of clearance", 1.00),
    ("CC(C)N1CCC(Oc2cc3[nH]c(C(=O)N4CCOCC4)cc3cc2F)CC1", "log10 of clearance", 0.78),
    ("CC(C)N1CCC(Oc2ccc3c(c2)cc(C(=O)N2CCS(=O)(=O)CC2)n3CC(F)(F)F)CC1", "log10 of clearance", 0.00),
    ("CC(C)N1CCC(Oc2ccc3[nH]c(C(=O)N4CCCCCC4)cc3c2)CC1", "log10 of clearance", 1.00),
    ("CC(C)N1CCC(Oc2ccc3[nH]c(C(=O)N4CCC(O)C4)cc3c2)CC1 (stereo not given)", "log10 of clearance", 1.08),
]

###

- condition-context: human, microsomes, 2 µM

# smiles, sign, clearance, µL/min/mg
measured = [
    ("COC1CCN(C(=O)c2cc3cc(OC4CCN(C(C)C)CC4)ccc3[nH]2)CC1", "=", 5),
    ("O=C(c1cc2cc(OC3CCN(C4CC4)CC3)ccc2[nH]1)N1CCOCC1", "=", 5),
    ("CC(C)N1CCC(Oc2ccc3c(c2)cc(C(=O)N2CCOCC2)n3CC(F)(F)F)CC1", "<", 1),
    ("CC(C)N1CCC(Oc2ccc3c(c2)cc(C(=O)N2CCC(F)(F)CC2)n3C(C)C)CC1", "=", 4),
    ("CC(C)N1CCC(Oc2ccc3c(c2)cc(C(=O)N2CCC(F)(F)CC2)n3CC(F)(F)F)CC1", "=", 2),
    ("CC(C)N1CCC(Oc2ccc3[nH]c(C(=O)N4CCC(F)(F)CC4)cc3c2)CC1", "=", 5),
    ("CC(C)N1CCC(Oc2ccc3[nH]c(C(=O)N4CCOCC4)cc3c2)CC1", "<", 1),
    ("O=C(c1cc2cc(OC3CCN(C4CC4)CC3)ccc2n1CC(F)(F)F)N1CCOCC1", "=", 11),
    ("CC(C)N1CCC(Oc2ccc3[nH]c(C(=O)N4CCCC(F)(F)C4)cc3c2)CC1", "<", 1),
]

###

Recorded inhibition at 10 µM for the following compounds
- tested-target: UniProt:Q12809
- Sequence (Q12809 whole entry): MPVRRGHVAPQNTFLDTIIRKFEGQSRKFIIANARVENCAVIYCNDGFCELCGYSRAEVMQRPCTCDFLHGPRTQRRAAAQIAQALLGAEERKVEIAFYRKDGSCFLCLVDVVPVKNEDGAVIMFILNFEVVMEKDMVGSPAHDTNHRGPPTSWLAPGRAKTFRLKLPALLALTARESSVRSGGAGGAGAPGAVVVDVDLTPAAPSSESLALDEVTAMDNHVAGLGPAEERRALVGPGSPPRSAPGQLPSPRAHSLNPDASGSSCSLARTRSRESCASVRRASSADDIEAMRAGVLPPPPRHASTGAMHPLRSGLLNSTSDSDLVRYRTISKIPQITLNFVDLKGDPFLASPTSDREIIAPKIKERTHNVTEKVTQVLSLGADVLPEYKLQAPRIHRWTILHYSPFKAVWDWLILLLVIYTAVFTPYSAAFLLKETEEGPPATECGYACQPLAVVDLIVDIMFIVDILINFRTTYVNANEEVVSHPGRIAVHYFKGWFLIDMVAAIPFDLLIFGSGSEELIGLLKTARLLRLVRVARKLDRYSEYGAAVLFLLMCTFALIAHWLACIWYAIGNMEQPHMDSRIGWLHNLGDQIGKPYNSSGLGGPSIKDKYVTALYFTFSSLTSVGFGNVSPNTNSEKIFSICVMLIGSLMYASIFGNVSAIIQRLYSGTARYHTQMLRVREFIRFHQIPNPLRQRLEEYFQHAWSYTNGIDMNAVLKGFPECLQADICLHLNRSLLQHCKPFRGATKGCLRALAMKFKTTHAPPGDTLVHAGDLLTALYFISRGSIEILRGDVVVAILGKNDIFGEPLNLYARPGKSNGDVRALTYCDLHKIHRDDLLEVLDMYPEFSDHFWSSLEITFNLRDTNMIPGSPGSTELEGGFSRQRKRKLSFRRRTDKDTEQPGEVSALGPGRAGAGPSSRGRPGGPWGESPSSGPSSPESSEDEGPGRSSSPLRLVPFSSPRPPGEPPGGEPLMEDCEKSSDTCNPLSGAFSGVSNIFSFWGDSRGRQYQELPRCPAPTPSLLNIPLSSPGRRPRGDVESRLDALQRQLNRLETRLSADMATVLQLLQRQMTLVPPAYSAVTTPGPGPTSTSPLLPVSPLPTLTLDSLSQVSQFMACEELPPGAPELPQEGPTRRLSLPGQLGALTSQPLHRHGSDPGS
- experiment: in vitro
- condition-context: CHO cells expressing human ERG
reported-property: inhibition at 10 µM (%)

# smiles, numeric-readout
rows = [
    ("CC(C)N1CCC(Oc2ccc3[nH]c(C(=O)N4CCOCC4)cc3c2)CC1", 28),
    ("CC(C)N1CCC(Oc2ccc3c(c2)cc(C(=O)N2CCC(F)(F)CC2)n3S(C)(=O)=O)CC1", 64),
    ("CC(C)N1CCC(Oc2ccc3[nH]c(C(=O)N4CCC(F)(F)CC4)cc3c2)CC1", 73),
    ("CC(C)N1CCC(Oc2ccc3c(c2)cc(C(=O)N2CCC(F)(F)CC2)n3C(C)C)CC1", 42),
    ("O=C(c1ccc2c(c1)cc(C(=O)N1CCOCC1)n2CC(F)(F)F)N1CCN(C2CCC2)CC1", 33),
]
